- RUN_DESCRIPTION: label from the status in PepcDB records
READOUT: protein production

Input line: Item under review: MIKLSSITAHILDIWHRRNSRSYIAHLRSLGIRIGDGCIFRDPLTTRIDVSRPALVSIGSNVDMNTYFQILTHDWASFVFRNKYHDFVNSSGRVEIGSNIYIGTNVIVLRGVTIGDNCVIGAGSVVTHDIPANSVAVGAPCRVVCSLDEYYQKRKVKGLQEAVEHVKAFQKNFGRDPLPHELYEEFIYFVDASNVEEYERQGVPVRSQLSIAYGDWLSTHKAKFSSYDDFIQYVNQKMNETAES . Reported protein production?
Output line: failed

Input line: Item under review: MKVGIDAGGTLIKIVQESQQGRSYETKLTTNISEVIAWLNANTFESISLTGGNAGVIAENLNVDATIFVEFDASSKGLGMLLKEQGHHIDEYIFANVGTGTSLHYFDGKQQRRVGGVGTGGGMIQGLGYLLSQITDYEALTNLAQSGDRDTIDLKVKHIYKDTEPPIPGELTAANFGNVLHNLDVDFSPANKLASVVGVVGEVITTMAITVARENKTENVVYIGSSFNNNPLLREVIEDYTVLRGFKPYYIENGAFSGALGAIYLN . Reported protein production?
Output line: failed

Input line: Item under review: MIKERPKFNWLHLLIFIVVVEAIGSLSAWLAGDIKAVYNGLNLPVLSPPDGLFGIVWPILYALIAIAGYLVFQQATTHRDRLMDATLFGIQLLLNFIWSIIFFSQSAYWWGLVIIIVLDLVVLLCILRFYRSSRLAAILMVPYLVWICFATYLTLGVALLN . Reported protein production?
Output line: failed

----------
- RUN_DESCRIPTION: label from the status in PepcDB records
READOUT: protein production

Input line: Item under review: REHNYPDTCFEHFVASSVAVYPVFELAAKSTGRIGQLLRSAVYESSAWQQGGNTHFGAFLLLIPLAMAAGEISREQGEQPGCGKTFFRIEAEEFENLASHAHAFVRETDCEDAVEFYRAFGHAGVRVNSVEEFDLEDPEATSDLRNQNITLYSLMEIAKGYDLIANEWTSGFGRCLEGAKIILDFMDARNCREEALAGGSVSICSGTGINEAVVYTFLKLLSKHRDTFIQTKFDAETADYVSSRAGEVLSGWEISGKKAGDFASILPRIQEFDSELLDKRINPGSTADIIIAALFIALLGGLR . Reported protein production?
Output line: failed

Input line: Item under review: MFAAAVSFVALLLFTIGLYGVMTSRVGIKMLISIEIMINSAILSIIGIGSYFYSSSVQIDPYVFALFAIAIGVVESAVGLGLLVIVYRKFGKIDISLLKEIRW . Reported protein production?
Output line: failed

Input line: Item under review: MEELLREYLPILVFLAVAAGLGLVLILAAVVLAVRNPDPEKVSAYECGFNAFDDARMKFDVRFYLVSILFIIFDLEIAFLFPWAVGFKDMSDVGFWSMMVFLGVLTIGFAYEWKKGALEWQ . Reported protein production?
Output line: failed

Input line: Item under review: METKGTGMTVNTVDVSAGRAQQVLREGWAAQRAGALTTSWMLHGRPGVGKTEIVRQLAAEQGARFYDLRLTTIESQDLRGLPYYDHETKKTQWYRPEDLPDDPDRPSLLFLDELTAAPPHLHPAVYGLLLERRVGPHILPDNVFLVAAGNMVEDGAVAYEMGTALSDRLIHLQVRATASDWLESYAVPRTLHPAVLAFIRMRPDLLETTAEALDRGLMISTTPRSWDRVSRIMGAVQDRALRRIMVAGTVGEAVAAEFMLVADDIEASVSVERLLNAAPHERIMLYPESMHGLHALIYGLVGALGPTTAVPVIDVMAGIRTLDVHRSDASFARMPLAELCTHGFEMAIRRGLEQGLAEDFLGHPAYAAYASERQAMGLELEHHHHHH . Reported protein production?
Output line: failed

Input line: Item under review: MYKLDHLNHNTLDESSLELHETPKGYTNVALFGLDSRDGELSGGVRSDSIMIVSINNKTGDVKIISVYRDTLLKQQDGSYEKANAAYSFGGPQEAVAMLNRNLDLDITKYASVNFNSLADIIDILGGVEVELTSEEIFWLNGYTAETSQVVGRQTHTLDENSPGVHNLDGIQAVSYTRIRYTAGDDFKRAERQRIILQKMIQKLKTAGPVKWNKILDQVLPEISTNMTTPDIMKLGLNIFRYKIGETKGFPFDITTSENVIGLEGSYAVAIGHADNVRQLHEQLFGETGYQPSDEVQQISQDVAYLTGVLEHHHHHH . Reported protein production?
Output line: not failed

Input line: Item under review: MKKIFYISLGFISLGIGIAGIVLPVVPTTPLVLLSAFCFSRSSEKFDIWLRQTKVYKYYAADFVESRSIAPARKKSMIWQIYILMGISIYFAPLMWLKLGLLIGTIVGTYVLFYVVPDKIDE . Reported protein production?
Output line: failed

New cases:
Input line: Item under review: MKQMNVVLIGGGTGLSVLARGLREFPIDITAIVTVADNGGSTGKIRDVMDIPAPGDIRNVIAALSDSESILTQLFQYRFGENQVDGHSLGNLVIAGMTNITNDFGHAIKELSKVLNIKGQVIPSTNASVQLNAVMEDGEIVHGETNIPKTHKKIDRVFLEPSDVEPMNEAIEALEQADLIVLGPGSLYTSVISNLCVKGISEALLRTSAPKLYVSNVMTQPGETDNYDVKEHIDALTRQVGEPFIDFVICSSESYSKDVLQRYEEKNSKPVAVHKEQLKDSGIRVLTASNLVEISNEHYVRHNTKVLSKMIYELALELTSTIRFTPSDKKK . Reported protein production?
Output line: not failed

Input line: Item under review: MSDIKKLGSSWIINWFFGFNQIPTNEDSSIYMKSVLTCAKADGVISPEEKDWALGFCASWGVADWVIEDLKTYEADEALEEVIARSPQVSMAQRDILLSAIWVSAADGELHEKEKAKIRKMATILGIKEEIVDQLEQLYYYEAALRQKRLNLLYPQKSPY . Reported protein production?
Output line: not failed

Input line: Item under review: MIQMSSNDSSEVIRQCLQVLESITSDSSVPRNIRRSVNEIMDILNNESEPLFLRAASSISILEDISNDPNLPLHTRTLIWNLSSQLETIPVDE . Reported protein production?
Output line: failed

Input line: Item under review: MCNAKDIYTAGWALVVMAGLVSLAIQVYLGYFRLDDMVKHLSRCRVIAIRMPLLGKDPLSRFFMLLCIGALFAMPHLFLRNGGLNVKDYRKFPLGLKWLINLFQFAALVAVIAFLVLWWVSRHL . Reported protein production?
Output line: failed

Input line: Item under review: MKVFFNKIPLALSSLVLALFSLSNQISQYTLFSQGIWLIAVFGFFLVLGRPIIGYRQTQEDLHNPVIASAFPSFFMAAFLFAGRLPLAQADLSIAWIVVLIGLYIAYIIFFSLRFLRPLVLEQVYPSWFVVYVGPAINLVTIPDSIPNSTKALILGLTGLATLALFPLIFWRMRRLAIPQPVLPILAILAAPLALLITSSIKSGQKPDTILLVGLLIFSQLFFFFALGLFTRLVNKGFVPLFAAFSFPLVNSINAFKAATTSLGLVNPATQLVYKVEFVFVLVIMTYLLYHFLKLLYKALIQALNTKKQAGSV . Reported protein production?
Output line: failed

Input line: Item under review: MGNKRFRSDNNAGKPTSVEATRIWATKVIEDFRASGNEVYTFEHNLSNNERGVIHQMCRKMGIQSKSSGRGEQRRLSIFKSRHKNGNKNEANEKSNKEKLKCVSFPPGADVILQELFTHYPPCDGDTAATSFTKYSGNKGKQGQWKDDFFRKPQISSEEILEKVASLSSRLKKDKALKEITKLRSKLPITSFKDAITSAVESNQVL . Reported protein production?
Output line: failed

Input line: Item under review: MDPTVSLQLSVDRSSPVPLYFQLSQQLEAAIEHGTLTPGSLLGNEIELAARLGLSRPTVRQAIQSLVDKGLLVRRRGVGTQVVHSQVKRPLELSSLYDDLEAAGQRPATQVLLNTLVPASAEVAAALGVAEGSDVHQVERLRLAHGEPMAYLCNYLPTGLLGLDSEQLEATGLYRLMRAAGITLHSARQSVGARAATAVEGERLGEPEGAPLLTMQRTTFDDTGRAVEFGTHTYRASRYSFEFQLLVRP . Reported protein production?
Output line: failed
